experiment: Toxicity liver stage against HepG2, at 10uM; type: cell-based; set-up: test concentration 10 uM, cell line HepG2-A16-CD81EGFP; settings: human, HepG2-A16-CD81EGFP cells; read-out: INHIBITION
Quantity kind: cytotoxicity at 10 µM (%)

molecule=O=C(NCc1nncn1-c1ccccc1)C1CC1 unit_of_measure=% value_observed=-13.1
molecule="Cc1nc(CN(C)C2CCCN(Cc3noc(C4CC4)n3)C2)oc1C (centres undefined)" unit_of_measure=% value_observed=-2.34
molecule="CC(C)CC(CO)NS(=O)(=O)Cc1ccon1 (centres undefined)" unit_of_measure=% value_observed=-3.33
molecule=Cc1c(C(=O)O)sc2nc(C(F)(F)F)ccc12 unit_of_measure=% value_observed=1.5
molecule=Cn1cccc1C(=O)N[C@@H]1CN(Cc2cccs2)[C@@H]2COC[C@@H]21 unit_of_measure=% value_observed=8.88
molecule=COCC(=O)NCc1cccc(OCCN(C)C2CCOCC2)c1 unit_of_measure=% value_observed=8.35
molecule=CCc1cnc(CNc2ccc(C(=O)NCc3ccco3)cc2C)o1 unit_of_measure=% value_observed=-0.375
molecule="Cc1ccc(NC(=O)N(C)C)c(C(=O)OCC(=O)NC(C)C(C)C)c1 (centres undefined)" unit_of_measure=% value_observed=-14.9
molecule=CC(=O)NCCOc1c(Cl)cccc1Cl unit_of_measure=% value_observed=-8.87
molecule=COCCN(Cc1ccccc1C)c1nc(C)nc2oc(C)nc12 unit_of_measure=% value_observed=-51.8
molecule=CC(C)C(=O)NCCNc1nccc(-c2cc(C(=O)O)ccn2)n1 unit_of_measure=% value_observed=-24
molecule=Cc1cc(NC(=O)NCCCSc2nncn2C)no1 unit_of_measure=% value_observed=0.0537
molecule="Cc1ccc(N2CCCC(NCc3ccc(Cl)o3)C2)nn1 (centres undefined)" unit_of_measure=% value_observed=-6.83
molecule="CC(C)(C)n1ncc2c1CCCC2NCc1cccc2c1OCCO2 (centres undefined)" unit_of_measure=% value_observed=-2.69
molecule=O=C(Nc1cccnc1)[C@H]1C[C@H]2CN(S(=O)(=O)C3CC3)C[C@@H]1O2 unit_of_measure=% value_observed=-71.8
molecule=Cc1ccc(NC2CCN(C(=O)COc3ccccc3)CC2)nn1 unit_of_measure=% value_observed=-3.25
molecule="Cc1nc(C2CCCN(C(=O)c3cccc4c3OCO4)C2)no1 (centres undefined)" unit_of_measure=% value_observed=3.39
molecule="Fc1ccc(CN2CCCCC2Cn2cncn2)c2ncccc12 (centres undefined)" unit_of_measure=% value_observed=6.95
molecule="N#Cc1ccc(NCCCOCC2CCOC2)c(F)c1 (centres undefined)" unit_of_measure=% value_observed=1.1
molecule=FC(F)(F)c1ccnc(N2CCCOCC2)c1 unit_of_measure=% value_observed=-1.41
molecule=COCc1nc2ncc3c(=O)n(-c4cccc(OC)c4)ccc3n2n1 unit_of_measure=% value_observed=8.99
molecule=Cc1nc(CN2C[C@@H]3CN(C(=O)c4cccn4C)C[C@@H]3C2=O)cs1 unit_of_measure=% value_observed=1.88
molecule=Cc1ccsc1C(=O)N1C[C@@H](C(=O)O)[C@H](C(C)C)C1 unit_of_measure=% value_observed=9.42
molecule="CCOC(C)c1nc(CN2CCN(Cc3cccnc3)CC2)cs1 (centres undefined)" unit_of_measure=% value_observed=3.59

* * *

We begin with a simple list: items and their reported cytotoxicity at 10 µM.
assay: Toxicity liver stage against HepG2, at 10uM; type: cell-based; design: test concentration 10 uM, cell line HepG2-A16-CD81EGFP; conditions: human, HepG2-A16-CD81EGFP cells; read-out: INHIBITION
Quantity kind: cytotoxicity at 10 µM (%)

compound="Cn1ccc(C(=O)N2CCCC(Cc3cccc4ncccc34)C2)n1 (centres undefined)" quantity_kind="cytotoxicity at 10 µM" unit_of_measure=% value_observed=22.1
compound=COc1c(CNCc2cccc(CN(C)C)c2)c(C)nn1C quantity_kind="cytotoxicity at 10 µM" unit_of_measure=% value_observed=-9.95
compound=CC(C)c1noc(CN2CCN(C(=O)c3cc(Cl)ccc3F)CC2)n1 quantity_kind="cytotoxicity at 10 µM" unit_of_measure=% value_observed=-6.8
compound=NCCn1cc(C(=O)NCc2ccccc2Cn2cccn2)nn1 quantity_kind="cytotoxicity at 10 µM" unit_of_measure=% value_observed=3.41
compound=CC(C)[C@H]1CN(C2Cc3ccccc3C2)C[C@@H]1NS(=O)(=O)N(C)C quantity_kind="cytotoxicity at 10 µM" unit_of_measure=% value_observed=1.52
compound=CCN1CCC2(CC1)c1nc[nH]c1CCN2S(C)(=O)=O quantity_kind="cytotoxicity at 10 µM" unit_of_measure=% value_observed=6.33
compound=N#Cc1ccccc1CN1C[C@@H]2CC[C@H]1CN(C(=O)c1cccnc1)C2 quantity_kind="cytotoxicity at 10 µM" unit_of_measure=% value_observed=-0.849
compound="c1ccc(OCCN2CCCC(c3noc(C4CC4)n3)C2)cc1 (centres undefined)" quantity_kind="cytotoxicity at 10 µM" unit_of_measure=% value_observed=2.58
compound="Cc1ccc(N2CC3(CCN(Cc4nccn4C)C3)CC2=O)s1 (centres undefined)" quantity_kind="cytotoxicity at 10 µM" unit_of_measure=% value_observed=-81.9
compound="CCOC1COC2(CCN(Cc3ccc4c(c3)OCO4)CC2)C1 (centres undefined)" quantity_kind="cytotoxicity at 10 µM" unit_of_measure=% value_observed=6.94
compound="COc1ccc2c(c1)NC(C1CCNCC1)NS2(=O)=O (centres undefined)" quantity_kind="cytotoxicity at 10 µM" unit_of_measure=% value_observed=-2.86
compound=Cc1noc(CN2CCN(c3cncc(Cl)n3)CC2)n1 quantity_kind="cytotoxicity at 10 µM" unit_of_measure=% value_observed=2.74
compound=CC(C)Nc1ncnc2c1CCN(C(=O)[C@H]1CCCO1)CC2 quantity_kind="cytotoxicity at 10 µM" unit_of_measure=% value_observed=-0.685
compound="Cc1c(NC(C)C(C)C)cccc1C(=O)NCc1ccnn1C (centres undefined)" quantity_kind="cytotoxicity at 10 µM" unit_of_measure=% value_observed=57.6
compound=COc1ccc([C@@H]2CN(C(=O)CCCc3cn[nH]c3)C[C@H]2N(C)C)cc1 quantity_kind="cytotoxicity at 10 µM" unit_of_measure=% value_observed=-2.31
compound=COCCN1C(=O)CO[C@H]2CN(Cc3ccccc3Cl)C[C@@H]21 quantity_kind="cytotoxicity at 10 µM" unit_of_measure=% value_observed=-6.55
compound="O=C(NC1CCCCC1)N1CCCC1c1nnc2n1CCNC2 (centres undefined)" quantity_kind="cytotoxicity at 10 µM" unit_of_measure=% value_observed=14.4
compound="CCc1nc(CN2CCCC2C(=O)NC2CC2)cs1 (centres undefined)" quantity_kind="cytotoxicity at 10 µM" unit_of_measure=% value_observed=-4.63
compound=Cc1nc(-c2ccc(CO)cc2)cc(C2CCNCC2)n1 quantity_kind="cytotoxicity at 10 µM" unit_of_measure=% value_observed=12.3
compound=CCS(=O)(=O)CC(=O)NC1(c2ccc(Cl)c(Cl)c2)CC1 quantity_kind="cytotoxicity at 10 µM" unit_of_measure=% value_observed=-2.6
compound=Nc1ncccc1CN1C[C@H]2CC[C@@H](C1)N(CC1CC1)C2=O quantity_kind="cytotoxicity at 10 µM" unit_of_measure=% value_observed=-0.956
compound="CC(Cn1ccnc1)NC(=O)N(C)Cc1ccco1 (centres undefined)" quantity_kind="cytotoxicity at 10 µM" unit_of_measure=% value_observed=-0.687
compound=Cc1noc(C)c1NC(=O)N1CCC(NC(=O)OC(C)(C)C)CC1 quantity_kind="cytotoxicity at 10 µM" unit_of_measure=% value_observed=4
compound="CCn1cc2c(n1)CN(Cc1ccoc1)CC2COCC1CC1 (centres undefined)" quantity_kind="cytotoxicity at 10 µM" unit_of_measure=% value_observed=-23.3

* * *

test: Toxicity liver stage against HepG2, at 10uM; format: cell-based; parameters: test concentration 10 uM, cell line HepG2-A16-CD81EGFP; details: human, HepG2-A16-CD81EGFP cells; read-out: INHIBITION
We begin with a simple list: items and their reported cytotoxicity at 10 µM.
Quantity kind: cytotoxicity at 10 µM (%)

compound=COCCNC(=O)c1nc(-c2cn(C)cn2)n2ccccc12 value_observed=-104
compound=O=c1[nH]ncn1-c1cccc(C(F)(F)F)c1 value_observed=-2
compound="CNC(=O)C1Cc2ccccc2CN1C(=O)CC(C)C (centres undefined)" value_observed=-150
compound=O=C(O)c1ccc2ccc(N3CCN(CC4CC4)CC3)n2c1 value_observed=7.25
compound="CNc1cc(N2CCCC2CNCc2cnc(C)cn2)ncn1 (centres undefined)" value_observed=-4.51
compound=CC(C)Oc1ccc(CNC(=O)NCc2ccncc2)cc1F value_observed=-18.3
compound="Cc1nn(C)c(C)c1C1SCC(=O)Nc2c1c(O)nn2C(C)C (centres undefined)" value_observed=-6.82
compound=Cc1cc(CN2C[C@H]3CCC[C@@]3(COCC(=O)N3CCCC3)C2)no1 value_observed=8.31
compound=COc1ccc(C)cc1CC(=O)N1CC[C@@]2(CCCO2)[C@@H](O)C1 value_observed=-1.47
compound=Cc1ccc(O[C@@H]2C[C@H]3CN(c4ncc(F)cn4)CCN3C2)cc1 value_observed=35.3
compound=Cc1nc(-c2ccccc2)ccc1C(=O)N1CCN(CCO)CC1 value_observed=-53.9
compound="CCc1nccn1-c1cncc(C2CCCN2Cc2ccccn2)n1 (centres undefined)" value_observed=-3.47
compound="CC(SCCNS(=O)(=O)c1cnn(C)c1)c1cccs1 (centres undefined)" value_observed=12.9
compound="Cc1cc2[nH]c(CN3CCOC(c4ccc(Cl)cc4)C3)cc(=O)n2n1 (centres undefined)" value_observed=1.91
compound="CC(C)CN(CC(O)c1ccc(F)cc1)C(=O)c1cc[nH]n1 (centres undefined)" value_observed=-5.71
compound="CCC1CN(CC(=O)N2CCN(C(C)=O)CC2)CCN1CCOC (centres undefined)" value_observed=-7.58
compound=Cc1cc(N2CCSCC2)ccc1NC(=O)N(CCO)C1CC1 value_observed=-10.1
compound="CCn1ncnc1C1CC(=O)NCc2nc(N3CCOCC3)sc21 (centres undefined)" value_observed=3.94
compound="Cc1nc(C(=O)N2CCCC(c3cccc(-n4ccnc4)n3)C2)co1 (centres undefined)" value_observed=8.31
compound="CSCCC(O)C(=O)N1CCCN(Cc2cccnc2)CC1 (centres undefined)" value_observed=8.2
compound=COc1cccc(-c2n[nH]cc2CNC2CCN(C3CC3)CC2)c1 value_observed=-3.78
compound=COc1c(CNC2(c3noc(C)n3)CCC2)c(C(C)C)nn1C value_observed=2.08
compound=COCc1ccc(C(=O)N2CCCN(Cc3ccc(F)cc3)CC2)s1 value_observed=-1.78
compound=Cc1ccc(CN2CCN(Cc3ccncc3)[C@@H]3CS(=O)(=O)C[C@@H]32)cc1 value_observed=6.86
